Value source: the NIST ThermoML archive (doi:10.1016/j.fluid.2008.11.013)

- Assay text: activity coefficient (dimensionless); of the first substance listed, at infinite dilution; xn = mol fraction of the nth substance listed
- Study conditions: 303.14 K; Liquid; Chromatography; x1 = 0
Measured parameter: activity coefficient
Just the number.

C=CCCCC [hex-1-ene] + CCCCCCCC[N+]1(C)CCCC1.O=S(=O)([N-]S(=O)(=O)C(F)(F)F)C(F)(F)F | 3.11

Asked: Looking for the measured activity coefficient of C=CCCCCC [1-heptene] + CCCCCC[N+]1(C)CCCC1.O=S(=O)([N-]S(=O)(=O)C(F)(F)F)C(F)(F)F , can you help?
Given back: 6.5

Asked: Looking for the measured activity coefficient of C=CCCC [1-pentene] + CCCCCCCC[N+]1(C)CCCC1.O=S(=O)([N-]S(=O)(=O)C(F)(F)F)C(F)(F)F , can you help?
Given back: 2.5

Asked: Looking for the measured activity coefficient of C=CCCCCCC [oct-1-ene] + CCCCCC[N+]1(C)CCCC1.O=S(=O)([N-]S(=O)(=O)C(F)(F)F)C(F)(F)F , can you help?
Given back: 8.93

----------
- Assay text: activity coefficient (dimensionless); of the first substance listed, at infinite dilution; xn = mol fraction of the nth substance listed
- Study conditions: 333.16 K; Liquid; Chromatography; x1 = 0
Measured parameter: activity coefficient

CCCCCCCCC [nonane] + CCCCCC[N+]1(C)CCCC1.O=S(=O)([N-]S(=O)(=O)C(F)(F)F)C(F)(F)F | 18.1
C=CCCCCC [1-heptene] + CCCCCC[N+]1(C)CCCC1.O=S(=O)([N-]S(=O)(=O)C(F)(F)F)C(F)(F)F | 6
C=CCCCCCCCC [1-decene] + CCCCCC[N+]1(C)CCCC1.O=S(=O)([N-]S(=O)(=O)C(F)(F)F)C(F)(F)F | 16.9
CCCCCCCCCC [decane] + CCCCCC[N+]1(C)CCCC1.O=S(=O)([N-]S(=O)(=O)C(F)(F)F)C(F)(F)F | 24.3

The record that follows has no activity coefficient shown yet.
Asked: Looking for the measured activity coefficient of C=CCCCCCC [oct-1-ene] + CCCCCC[N+]1(C)CCCC1.O=S(=O)([N-]S(=O)(=O)C(F)(F)F)C(F)(F)F , can you help?
Given back: 8.2

----------
- Assay text: activity coefficient (dimensionless); of the first substance listed, at infinite dilution; xn = mol fraction of the nth substance listed
- Study conditions: 323.16 K; Liquid; Chromatography; x1 = 0
As shown below, each of these compounds has a reported activity coefficient value.
Just the number.

Asked: Looking for the measured activity coefficient of CCCCCCCCC [nonane] + CCCCCC[N+]1(C)CCCC1.O=S(=O)([N-]S(=O)(=O)C(F)(F)F)C(F)(F)F , can you help?
Given back: 18.8

Asked: Looking for the measured activity coefficient of CCCCC [pentane] + CCCCCC[N+]1(C)CCCC1.O=S(=O)([N-]S(=O)(=O)C(F)(F)F)C(F)(F)F , can you help?
Given back: 4.8

Asked: Looking for the measured activity coefficient of CCCCCCCCCC [decane] + CCCCCC[N+]1(C)CCCC1.O=S(=O)([N-]S(=O)(=O)C(F)(F)F)C(F)(F)F , can you help?
Given back: 25.1

Asked: Looking for the measured activity coefficient of CCCCCC [hexane] + CCCCCC[N+]1(C)CCCC1.O=S(=O)([N-]S(=O)(=O)C(F)(F)F)C(F)(F)F , can you help?
Given back: 7.21

----------
As shown below, each of these compounds has a reported activity coefficient value.
- Assay text: activity coefficient (dimensionless); of the first substance listed, at infinite dilution; xn = mol fraction of the nth substance listed
- Study conditions: 323.15 K; Liquid; Chromatography; x1 = 0
Just the number.

C=CCCC [1-pentene] + CCCCCC[N+]1(C)CCCC1.O=S(=O)([N-]S(=O)(=O)C(F)(F)F)C(F)(F)F | 3.33
CCCCCCCC [octane] + CCCCCC[N+]1(C)CCCC1.O=S(=O)([N-]S(=O)(=O)C(F)(F)F)C(F)(F)F | 13.9
C=CCCCCCCCC [1-decene] + CCCCCC[N+]1(C)CCCC1.O=S(=O)([N-]S(=O)(=O)C(F)(F)F)C(F)(F)F | 17.3

Asked: Looking for the measured activity coefficient of CCCCCCC [heptane] + CCCCCC[N+]1(C)CCCC1.O=S(=O)([N-]S(=O)(=O)C(F)(F)F)C(F)(F)F , can you help?
Given back: 10.3

Asked: Looking for the measured activity coefficient of C=CCCCC [hex-1-ene] + CCCCCC[N+]1(C)CCCC1.O=S(=O)([N-]S(=O)(=O)C(F)(F)F)C(F)(F)F , can you help?
Given back: 4.55

----------
- Assay text: activity coefficient (dimensionless); of the first substance listed, at infinite dilution; xn = mol fraction of the nth substance listed
- Study conditions: 313.17 K; Liquid; Chromatography; x1 = 0
Measured parameter: activity coefficient
Just the number.

C=CCCC [1-pentene] + CCCCCC[N+]1(C)CCCC1.O=S(=O)([N-]S(=O)(=O)C(F)(F)F)C(F)(F)F | 3.37
CCCCCCCCCC [decane] + CCCCCC[N+]1(C)CCCC1.O=S(=O)([N-]S(=O)(=O)C(F)(F)F)C(F)(F)F | 27

Asked: Looking for the measured activity coefficient of CCCCCCCCC [nonane] + CCCCCC[N+]1(C)CCCC1.O=S(=O)([N-]S(=O)(=O)C(F)(F)F)C(F)(F)F , can you help?
Given back: 19.9

Asked: Looking for the measured activity coefficient of C=CCCCC [hex-1-ene] + CCCCCC[N+]1(C)CCCC1.O=S(=O)([N-]S(=O)(=O)C(F)(F)F)C(F)(F)F , can you help?
Given back: 4.63

----------
- Assay text: activity coefficient (dimensionless); of the first substance listed, at infinite dilution; xn = mol fraction of the nth substance listed
- Study conditions: 303.16 K; Liquid; Chromatography; x1 = 0
Label rule, in plain words: activity coefficient of 5 and up is MET, under 5 is NOT MET.

Field: example entries. Status: answers known.
CCCCCCCC [octane] + CCCCCC[N+]1(C)CCCC1.O=S(=O)([N-]S(=O)(=O)C(F)(F)F)C(F)(F)F | MET
CCCCCCC [heptane] + CCCCCC[N+]1(C)CCCC1.O=S(=O)([N-]S(=O)(=O)C(F)(F)F)C(F)(F)F | MET

Asked: Could you tell me if the measured activity coefficient of C=CCCCCCCCC [1-decene] + CCCCCC[N+]1(C)CCCC1.O=S(=O)([N-]S(=O)(=O)C(F)(F)F)C(F)(F)F reaches 5 or more?
Given back: MET

Asked: Could you tell me if the measured activity coefficient of C=CCCC [1-pentene] + CCCCCC[N+]1(C)CCCC1.O=S(=O)([N-]S(=O)(=O)C(F)(F)F)C(F)(F)F reaches 5 or more?
Given back: NOT MET

Asked: Could you tell me if the measured activity coefficient of C=CCCCC [hex-1-ene] + CCCCCC[N+]1(C)CCCC1.O=S(=O)([N-]S(=O)(=O)C(F)(F)F)C(F)(F)F reaches 5 or more?
Given back: NOT MET

Asked: Could you tell me if the measured activity coefficient of CCCCCC [hexane] + CCCCCCCC[N+]1(C)CCCC1.O=S(=O)([N-]S(=O)(=O)C(F)(F)F)C(F)(F)F reaches 5 or more?
Given back: MET

----------
- Assay text: activity coefficient (dimensionless); of the first substance listed, at infinite dilution; xn = mol fraction of the nth substance listed
- Study conditions: 313.16 K; Liquid; Chromatography; x1 = 0
Measured parameter: activity coefficient
Just the number.

Solved entries:
CCCCCCCC [octane] + CCCCCC[N+]1(C)CCCC1.O=S(=O)([N-]S(=O)(=O)C(F)(F)F)C(F)(F)F | 14.7
C=CCCCCCC [oct-1-ene] + CCCCCC[N+]1(C)CCCC1.O=S(=O)([N-]S(=O)(=O)C(F)(F)F)C(F)(F)F | 8.61
C=CCCCCC [1-heptene] + CCCCCC[N+]1(C)CCCC1.O=S(=O)([N-]S(=O)(=O)C(F)(F)F)C(F)(F)F | 6.31

The record that follows has no activity coefficient shown yet.
Asked: Looking for the measured activity coefficient of CCCCCCC [heptane] + CCCCCC[N+]1(C)CCCC1.O=S(=O)([N-]S(=O)(=O)C(F)(F)F)C(F)(F)F , can you help?
Given back: 10.8
